Tested System: Nitric oxide synthase, inducible (Homo sapiens) (UniProt P35228)
Sequence (P35228 whole entry): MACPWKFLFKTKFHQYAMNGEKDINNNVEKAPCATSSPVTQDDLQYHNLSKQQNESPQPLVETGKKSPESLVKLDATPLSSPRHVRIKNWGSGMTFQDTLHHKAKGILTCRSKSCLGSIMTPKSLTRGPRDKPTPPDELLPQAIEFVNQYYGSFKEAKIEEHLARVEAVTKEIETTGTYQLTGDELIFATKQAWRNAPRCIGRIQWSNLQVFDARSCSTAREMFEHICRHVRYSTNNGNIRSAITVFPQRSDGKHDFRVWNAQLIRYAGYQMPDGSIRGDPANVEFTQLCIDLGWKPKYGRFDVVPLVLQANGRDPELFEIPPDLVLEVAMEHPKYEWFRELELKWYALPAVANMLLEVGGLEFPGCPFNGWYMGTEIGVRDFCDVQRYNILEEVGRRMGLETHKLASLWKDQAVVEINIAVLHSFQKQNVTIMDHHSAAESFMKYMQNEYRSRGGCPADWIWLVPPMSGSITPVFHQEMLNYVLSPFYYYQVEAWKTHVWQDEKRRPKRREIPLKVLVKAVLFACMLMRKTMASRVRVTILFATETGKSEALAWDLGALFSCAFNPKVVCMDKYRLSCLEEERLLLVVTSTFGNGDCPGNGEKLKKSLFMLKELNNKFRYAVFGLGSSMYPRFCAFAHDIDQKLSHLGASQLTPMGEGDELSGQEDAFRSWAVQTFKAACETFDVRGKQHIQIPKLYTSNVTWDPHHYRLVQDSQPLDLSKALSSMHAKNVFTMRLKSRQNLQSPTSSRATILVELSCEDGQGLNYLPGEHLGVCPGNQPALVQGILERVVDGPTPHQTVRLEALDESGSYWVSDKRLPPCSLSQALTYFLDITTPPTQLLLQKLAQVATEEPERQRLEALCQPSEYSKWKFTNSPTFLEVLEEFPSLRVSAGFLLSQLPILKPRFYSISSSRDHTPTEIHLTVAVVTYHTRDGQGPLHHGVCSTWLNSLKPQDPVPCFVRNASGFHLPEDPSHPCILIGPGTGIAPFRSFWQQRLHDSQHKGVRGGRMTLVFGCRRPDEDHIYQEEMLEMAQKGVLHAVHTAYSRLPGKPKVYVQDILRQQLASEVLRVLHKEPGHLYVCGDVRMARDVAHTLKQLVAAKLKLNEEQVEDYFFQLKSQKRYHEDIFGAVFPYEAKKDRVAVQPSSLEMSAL
Assay Info: Inhibition of human iNOS expressed in insect Sf9 cells assessed as residual activity at 100 uM by Griess assay relative to control
Readings of Activity for the listed compounds
Answer in %, number only, no unit symbol.

Name the recorded Activity for CC1=CC=CC2=NCC(C(=O)c3ccc(-c4ccc(Br)cc4)cc3)CN12.[O-][Cl+3]([O-])([O-])O (configuration not stated) .
106

Name the recorded Activity for CC1=CC=CC2=NCC(C(=O)c3ccc(-c4ccccc4)cc3)CN12 (configuration not stated) .
86

Tell me the measured Activity of CC1=CC2=NCC(C(=O)c3ccc(O)cc3)CN2C=C1 (configuration not stated) , please.
30

Request the reported Activity associated with N=C(NCCC[C@H](N)C(=O)O)N[N+](=O)[O-]
48

Consider the compound shown here: CCSC(=N)N What is its recorded Activity?
6

Query (compound): CC1=CC2=NCC(C(=O)c3ccc(-c4ccccc4)cc3)CN2C=C1 (configuration not stated) ; field requested: Activity
17

Data request, read-out Activity, for CCCNC(=N)NCCC[C@H](N)C(=O)O
95

Looking for the measured Activity of CC1=CC2=NCC(C(=O)c3ccc(OCc4ccc(C#N)cc4)cc3)CN2C=C1.[O-][Cl+3]([O-])([O-])O (configuration not stated) , can you help?
105

Give its Activity value. Item: CC1=CC2=NCC(C(=O)c3ccc(OCc4ccccc4)cc3)CN2C=C1 (configuration not stated)
73

Recorded Activity of COc1ccc2cc(C(=O)C3CN=C4C=C(C)C=CN4C3)ccc2c1 (configuration not stated) , please.
88

Can you look up the measured Activity of O=C(c1ccc2ccccc2c1)C1CN=C2C=CC=CN2C1 (configuration not stated) for me?
93

Recorded Activity of CC1=CC2=NCC(C(=O)c3ccccc3)CN2C=C1 (configuration not stated) , please.
63

----------
Reported Activity by item:
Tested System: Nitric oxide synthase, inducible (Mus musculus) (UniProt P29477)
Sequence (whole entry): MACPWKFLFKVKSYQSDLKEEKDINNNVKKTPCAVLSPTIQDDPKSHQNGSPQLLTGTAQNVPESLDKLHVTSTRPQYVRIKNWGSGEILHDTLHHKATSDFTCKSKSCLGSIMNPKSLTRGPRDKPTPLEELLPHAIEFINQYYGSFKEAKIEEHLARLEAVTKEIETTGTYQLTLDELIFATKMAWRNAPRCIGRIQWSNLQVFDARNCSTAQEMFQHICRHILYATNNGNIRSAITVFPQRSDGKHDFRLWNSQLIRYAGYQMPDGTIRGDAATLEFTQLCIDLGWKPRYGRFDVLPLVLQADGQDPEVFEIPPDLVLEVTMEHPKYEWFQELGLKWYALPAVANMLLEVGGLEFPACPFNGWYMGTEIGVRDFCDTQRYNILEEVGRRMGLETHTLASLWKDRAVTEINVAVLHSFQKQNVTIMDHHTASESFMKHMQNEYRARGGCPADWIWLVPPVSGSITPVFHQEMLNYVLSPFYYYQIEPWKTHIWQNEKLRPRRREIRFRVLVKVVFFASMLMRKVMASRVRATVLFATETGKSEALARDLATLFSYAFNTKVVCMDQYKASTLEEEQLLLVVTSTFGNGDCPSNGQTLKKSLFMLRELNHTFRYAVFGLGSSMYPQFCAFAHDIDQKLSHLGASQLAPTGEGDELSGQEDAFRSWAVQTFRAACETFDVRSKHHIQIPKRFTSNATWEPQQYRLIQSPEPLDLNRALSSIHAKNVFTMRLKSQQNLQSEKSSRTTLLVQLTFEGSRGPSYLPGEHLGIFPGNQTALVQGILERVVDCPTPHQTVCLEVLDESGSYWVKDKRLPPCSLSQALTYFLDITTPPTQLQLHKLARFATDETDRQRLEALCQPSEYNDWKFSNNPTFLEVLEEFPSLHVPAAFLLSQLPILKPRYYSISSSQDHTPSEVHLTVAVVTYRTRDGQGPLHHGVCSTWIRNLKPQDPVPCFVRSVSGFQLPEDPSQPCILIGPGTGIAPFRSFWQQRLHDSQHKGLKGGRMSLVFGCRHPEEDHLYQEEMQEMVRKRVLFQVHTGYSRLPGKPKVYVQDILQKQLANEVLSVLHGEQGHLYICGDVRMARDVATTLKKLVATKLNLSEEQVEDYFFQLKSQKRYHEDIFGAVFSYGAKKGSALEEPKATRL
Assay Info: Inhibition of mouse iNOS expressed in insect Sf9 cells assessed as residual activity at 100 uM by Griess assay relative to control

Consider the following illustrative entries.
[[record]]
compound = "COc1ccc2cc(C(=O)C3CN=C4C=C(C)C=CN4C3)ccc2c1 (configuration not stated)"
experimental_result = "72%"

[[record]]
compound = "COc1ccc(C(=O)C2CN=C3C=CC=CN3C2)cc1 (configuration not stated)"
experimental_result = "100%"

[[record]]
compound = "O=C(c1ccc(Cl)c(Cl)c1)C1CN=C2C=CC=CN2C1.[O-][Cl+3]([O-])([O-])O (configuration not stated)"
experimental_result = "95%"


Can you look up the measured Activity of CC1=CC=CC2=NCC(C(=O)c3ccccc3)CN12 (configuration not stated) for me?
104%

Record request: Activity value, item CC(=N)NCc1cccc(CN)c1
3%

Query: Activity; subject: Cc1ccc(C(=O)C2CN=C3C=CC=CN3C2)cc1.[O-][Cl+3]([O-])([O-])O (configuration not stated)
86%

Would you kindly share the measured Activity for O=C(c1ccc(Br)cc1)C1CN=C2C=CC=CN2C1 (configuration not stated) ?
92%

Value lookup for Activity; key = COc1cc(C(=O)C2CN=C3C=CC=CN3C2)cc(OC)c1OC (configuration not stated)
105%

Returns the measured Activity for the input compound. Input: CCSC(=N)N
2%

Given the entry CC1=CC=CC2=NCC(C(=O)c3ccc(F)cc3)CN12.[O-][Cl+3]([O-])([O-])O (configuration not stated) , report its measured Activity.
83%

Recorded Activity for CC1=CC2=NCC(C(=O)c3ccc(-c4ccccc4)cc3)CN2C=C1 (configuration not stated) , please?
40%

Quick check: Activity of CC1=CC=CC2=NCC(C(=O)c3ccc4ccccc4c3)CN12 (configuration not stated) ?
75%
